assay: self-splicing fitness, log relative to wild type (ln ratio); higher = more splicing; Tetrahymena group I intron in knt gene, E. coli kanamycin selection, DiMSum; sequences stand for … in CUCUCU…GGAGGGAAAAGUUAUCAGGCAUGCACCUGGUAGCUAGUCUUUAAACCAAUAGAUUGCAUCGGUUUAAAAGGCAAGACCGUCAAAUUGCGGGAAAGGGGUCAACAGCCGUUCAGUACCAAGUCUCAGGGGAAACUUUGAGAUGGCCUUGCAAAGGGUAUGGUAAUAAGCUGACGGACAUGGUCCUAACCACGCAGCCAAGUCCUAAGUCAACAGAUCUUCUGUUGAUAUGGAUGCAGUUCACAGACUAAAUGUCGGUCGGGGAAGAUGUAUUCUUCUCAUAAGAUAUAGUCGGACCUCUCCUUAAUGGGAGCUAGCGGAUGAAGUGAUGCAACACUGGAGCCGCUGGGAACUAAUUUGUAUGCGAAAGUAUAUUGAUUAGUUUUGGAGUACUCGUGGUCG; details: 30 °C;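 note: selection with 25 µg/mL kanamycin versus none on LB agar overnight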
Binning of self-splicing fitness (ln) into classes: class A: < -3; class B: ≥ -3 and < -2; class C: ≥ -2

> print(dat)
               seqstring  grouplabel
 1  CACAAGCAAUAUUACGUGUA     class A
 2  UGCAAGCAAUAUUACGCGAC     class A
 3  GACCAGCAAUAUUACGCUCU     class C
 4  ACUGAGCAAUAUUACGCAUU     class B
 5  GUGUAGCAAUAUUACGCGUC     class A
 6  ACGAAGCAAUAUUACGUAGG     class B
 7  GUUCAGCAAUAUUACGCAGA     class C
 8  CCGGAGCAAUAUUACGAUGU     class C
 9  CGAAAGCAAUAUUACGUAGU     class A
10  GGAUAGCAAUAUUACGAUCA     class C
11  GAAGAGCAAUAUUACGGCUU     class C
12  UAUAAGCAAUAUUACGUCAA     class B
13  ACAUAGCAAUAUUACGUUAU     class A
14  UGCCAGCAAUAUUACGGCUU     class C
15  CGAUAGCAAUAUUACGCGAG     class A
16  AUUGAGCAAUAUUACGGCAA     class C
17  ACGAAGCAAUAUUACGGAGU     class A
18  AGGUAGCAAUAUUACGUUUC     class A
19  AUAAAGCAAUAUUACGUAAU     class C
20  CAUCAGCAAUAUUACGUGUG     class B
21  ACCAAGCAAUAUUACGAGAA     class B
22  UGUCAGCAAUAUUACGCGUC     class B
23  AAAAAGCAAUAUUACGAUCA     class C
24  UUGGAGCAAUAUUACGGAUG     class A
25  CGUCAGCAAUAUUACGGGUG     class C
26  CGACAGCAAUAUUACGCAAC     class A
27  CGAAAGCAAUAUUACGCGUG     class C
28  GAGUAGCAAUAUUACGUUGA     class B
29  GAGCAGCAAUAUUACGUAUG     class B
30  AGCAAGCAAUAUUACGGGAC     class A
31  AAACAGCAAUAUUACGUGAU     class B
32  GAGUAGCAAUAUUACGUACC     class C
33  UGAUAGCAAUAUUACGCGUA     class C

----------
assay: self-splicing fitness, log relative to wild type (ln ratio); higher = more splicing; Tetrahymena group I intron in knt gene, E. coli kanamycin selection, DiMSum; sequences stand for … in CUCUCU…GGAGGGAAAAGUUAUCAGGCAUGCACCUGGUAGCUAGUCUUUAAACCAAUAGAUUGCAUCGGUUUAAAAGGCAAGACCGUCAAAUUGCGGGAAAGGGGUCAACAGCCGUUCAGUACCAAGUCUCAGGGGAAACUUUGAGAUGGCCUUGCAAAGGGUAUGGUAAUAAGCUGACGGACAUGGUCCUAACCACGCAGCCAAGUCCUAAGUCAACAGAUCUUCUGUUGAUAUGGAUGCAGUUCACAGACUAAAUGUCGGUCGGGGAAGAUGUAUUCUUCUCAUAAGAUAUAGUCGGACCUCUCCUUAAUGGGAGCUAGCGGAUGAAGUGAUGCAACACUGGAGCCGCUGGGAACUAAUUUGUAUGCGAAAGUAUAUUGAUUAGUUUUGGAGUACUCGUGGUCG; conditions: 37 °C
recordedMetric: self-splicing fitness (ln)

> print(dat)
               seqstring              recordedmetric  measured
 1  GAAAAGCAAUAUUACGUCCU  self-splicing fitness (ln)     0.514
 2  UGUUAGCAAUAUUACGAAUU  self-splicing fitness (ln)      -1.6
 3  GACAAGCAAUAUUACGUCAG  self-splicing fitness (ln)     -2.21
 4  GGACAGCAAUAUUACGUGGC  self-splicing fitness (ln)    -0.384
 5  GCGUAGCAAUAUUACGAUUG  self-splicing fitness (ln)     -1.98
 6  GGUAAGCAAUAUUACGUCUU  self-splicing fitness (ln)    -0.802
 7  AAUGAGCAAUAUUACGCUCG  self-splicing fitness (ln)    -0.585
 8  GGCAAGCAAUAUUACGUAAU  self-splicing fitness (ln)     0.562
 9  CAUUAGCAAUAUUACGGAAC  self-splicing fitness (ln)    -0.879
10  CGUCAGCAAUAUUACGAGGG  self-splicing fitness (ln)     -1.81
11  UACGAGCAAUAUUACGUGGG  self-splicing fitness (ln)     -2.88
12  UAUAAGCAAUAUUACGGCGC  self-splicing fitness (ln)     -1.35
13  CCGAAGCAAUAUUACGUUUG  self-splicing fitness (ln)    -0.979
14  GGACAGCAAUAUUACGUCAU  self-splicing fitness (ln)    -0.489
15  CUUUAGCAAUAUUACGACUA  self-splicing fitness (ln)     -1.32
16  GAGGAGCAAUAUUACGUACU  self-splicing fitness (ln)    -0.205

----------
This listing pairs sequences with measured self-splicing fitness (ln).
experiment: self-splicing fitness, log relative to wild type (ln ratio); higher = more splicing; Tetrahymena group I intron in knt gene, E. coli kanamycin selection, DiMSum; sequences stand for … in CUCUCU…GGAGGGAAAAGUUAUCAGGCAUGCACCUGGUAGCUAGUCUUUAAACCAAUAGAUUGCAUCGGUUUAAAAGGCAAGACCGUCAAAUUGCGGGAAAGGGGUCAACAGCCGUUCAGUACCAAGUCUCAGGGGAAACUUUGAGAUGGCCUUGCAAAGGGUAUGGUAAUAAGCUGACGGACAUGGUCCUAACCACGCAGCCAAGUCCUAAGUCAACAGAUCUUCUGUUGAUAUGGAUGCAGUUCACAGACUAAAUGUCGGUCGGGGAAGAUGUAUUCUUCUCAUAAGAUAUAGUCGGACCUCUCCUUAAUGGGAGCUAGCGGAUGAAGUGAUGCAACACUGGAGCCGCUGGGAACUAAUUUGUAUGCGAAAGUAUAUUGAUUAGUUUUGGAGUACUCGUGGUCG; conditions: 30 °C
recordedMetric: self-splicing fitness (ln)

> print(dat)
               seqstring  measured
 1  CUAGAGCAAUAUUACGCAAU     -3.77
 2  ACCCAGCAAUAUUACGCCCU   -0.0641
 3  UAGUAGCAAUAUUACGAGAU     -2.69
 4  UCCCAGCAAUAUUACGCGUC     -3.15
 5  CGCUAGCAAUAUUACGGAUG     -1.13
 6  CCUGAGCAAUAUUACGAUGG     -4.46
 7  GCAAAGCAAUAUUACGACCU     -1.17
 8  UCGAAGCAAUAUUACGAAAG     -3.24
 9  UGGGAGCAAUAUUACGUGGU     -2.97
10  GAGGAGCAAUAUUACGCUUG     -1.28
11  UAUUAGCAAUAUUACGCAUA    -0.754
12  AUGCAGCAAUAUUACGACUU      0.39
13  GAUGAGCAAUAUUACGCUCA     -1.18
14  AGUAAGCAAUAUUACGCCCC     0.393
15  UCGAAGCAAUAUUACGCCAA      -2.4
16  CAUAAGCAAUAUUACGGAGG      -2.3
17  UCAUAGCAAUAUUACGCGCC     -3.62
18  AUGCAGCAAUAUUACGAUAC     -2.96
19  AUUAAGCAAUAUUACGAUAG     -3.89
20  GAACAGCAAUAUUACGAUCG    -0.614
21  UAUGAGCAAUAUUACGGGAG     -1.86
22  UCCGAGCAAUAUUACGAUCG     -3.27
23  CUUAAGCAAUAUUACGGUCC     -1.36
24  CCACAGCAAUAUUACGGCUA     -3.88
25  ACGCAGCAAUAUUACGCCUC     -2.83
26  CAUAAGCAAUAUUACGUCCA     -3.32
27  UGGGAGCAAUAUUACGAUGG     -2.64
28  CACUAGCAAUAUUACGGGCC     -4.05
29  GCAAAGCAAUAUUACGGUUC     -2.17
30  ACUGAGCAAUAUUACGUGCG        -3
31  UGGAAGCAAUAUUACGUAGU      -2.9
32  CGAGAGCAAUAUUACGCAUC     -3.04
33  CAGUAGCAAUAUUACGAGGA     -3.13
34  CGUCAGCAAUAUUACGCGUU     -2.71
